Recorded measurements of clearance, one per entry
- method: Mouse pharmacokinetic study
- Type: in vivo, Balb/c mouse
- protocolConditions: plasma; Balb/c mouse (female), 3 mg/kg, iv
Number in mL/min/kg, nothing else.

A selection of reference data follows.
# querySmiles, propertyName, resultNumber
rows = [
    ("C=CC(=O)N1CCN(c2c(C#N)c(=O)n(-c3c(C)ccnc3C(C)C)c3nc(-c4c(N)c(F)c(F)c(F)c4F)c(Cl)cc23)[C@@H](C)C1", "clearance", 7.2),
    ("C=CC(=O)N1CCN(c2c(C#N)c(=O)n(-c3c(C(C)C)ncnc3C(C)C)c3nc(-c4c(N)cccc4F)c(Cl)cc23)CC1", "clearance", 32),
]

The record that follows has no clearance shown yet.
Form field: reported clearance of C=CC(=O)N1CCN(c2c(C#N)c(=O)n(-c3c(C)ccnc3C(C)C)c3nc(-c4ccccc4F)c(Cl)cc23)CC1 72

---

Recorded measurements of AUC(0-t), one per entry
- method: Mouse pharmacokinetic study
- Format: in vivo, Balb/c mouse
- protocolConditions: plasma; Balb/c mouse (female), 10 mg/kg, po; read-out: AUC0-24 h
Number in ng·h/mL, nothing else.

A selection of reference data follows.
# querySmiles, unitInfo, AUC(0-t)
data = [
    ("C=CC(=O)N1CCN(c2c(C#N)c(=O)n(-c3c(C)ccnc3C(C)C)c3nc(-c4c(N)c(F)c(F)c(F)c4F)c(Cl)cc23)[C@@H](C)C1", "ng·h/mL", 9590),
    ("C=CC(=O)N1CCN(c2c(C#N)c(=O)n(-c3c(C(C)C)ncnc3C(C)C)c3nc(-c4c(N)cccc4F)c(Cl)cc23)CC1", "ng·h/mL", 1660),
]

The record that follows has no AUC(0-t) shown yet.
Form field: reported AUC(0-t) of C=CC(=O)N1CCN(c2c(C#N)c(=O)n(-c3c(C)ccnc3C(C)C)c3nc(-c4ccccc4F)c(Cl)cc23)CC1 1030

---

- method: Dog pharmacokinetic study
- Type: in vivo, beagle dog
- protocolConditions: plasma; beagle dog, female, 10 mg/kg, po; read-out: Cmax
propertyName: Cmax (ng/mL)
Number in ng/mL, nothing else.

Form field: reported Cmax of C=CC(=O)N1CCN(c2c(C#N)c(=O)n(-c3c(C)ccnc3C(C)C)c3nc(-c4ccccc4F)c(Cl)cc23)CC1 [Amgen 6] 2580

---

Recorded measurements of log10 IC50, one per entry
- Test system: HIS-KRAS (G12C)
- Format: biochemical
- protocolConditions: GDP-loaded HIS-KRAS (G12C), 1 hour pre-incubation with compound, TR-FRET; read-out: SOS1 catalyzed nucleotide exchange IC50
Base-10 log of IC50, unit nM.

A selection of reference data follows.
# compound, propertyName, resultNumber
rows = [
    ("C=CC(=O)N1CCN(c2c(C#N)c(=O)n(-c3c(C(C)C)ncnc3C(C)C)c3nc(-c4c(N)cccc4F)c(Cl)cc23)CC1", "log10 IC50", 0.44),
    ("C=CC(=O)N1CCN(c2c(C#N)c(=O)n(-c3c(C)ccnc3C(C)C)c3nc(-c4c(N)c(F)c(F)c(F)c4F)c(Cl)cc23)C[C@H]1C [Compound 9]", "log10 IC50", 0.36),
    ("C=CC(=O)N1CCN(c2c(C#N)c(=O)n(-c3c(C)ccnc3C(C)C)c3nc(-c4c(N)c(F)c(F)c(F)c4F)c(Cl)cc23)C[C@H]1C [Compound 14]", "log10 IC50", 0.55),
    ("C=CC(=O)N1[C@H](C)CN(c2c(C#N)c(=O)n(-c3c(C)ccnc3C(C)C)c3nc(-c4c(N)c(F)c(F)c(F)c4F)c(Cl)cc23)C[C@@H]1C [Compound 13]", "log10 IC50", 0.82),
    ("C=CC(=O)N1[C@H](C)CN(c2c(C#N)c(=O)n(-c3c(C)ccnc3C(C)C)c3nc(-c4c(F)c(N)c(F)c(F)c4F)c(Cl)cc23)C[C@@H]1C", "log10 IC50", 0.82),
    ("C=CC(=O)N1CCN(c2c(C#N)c(=O)n(-c3c(C)ccnc3C(C)C)c3nc(-c4c(N)c(F)c(F)c(F)c4F)c(Cl)cc23)[C@@H](C)C1 (single isomer, unassigned) [Compound 11-2]", "log10 IC50", 0.32),
    ("C=CC(=O)N1CCN(c2c(C#N)c(=O)n(-c3c(C)ccnc3C(C)C)c3nc(-c4c(N)c(Cl)c(F)c(F)c4F)c(Cl)cc23)CC1", "log10 IC50", 0.56),
    ("C=CC(=O)N1CCN(c2c(C#N)c(=O)n(-c3c(C)ccnc3C(C)C)c3nc(-c4c(F)c(F)c(F)c(N)c4Cl)c(Cl)cc23)[C@@H](C)C1 (single isomer, unassigned) [Compound 15-2]", "log10 IC50", 1.92),
    ("C=CC(=O)N1[C@H](C)CN(c2c(C#N)c(=O)n(-c3c(C)ccnc3C(C)C)c3nc(-c4c(N)c(F)c(F)c(F)c4F)c(Cl)cc23)C[C@@H]1C (single isomer, unassigned) [Compound 13-1]", "log10 IC50", 0.44),
    ("C=CC(=O)N1[C@H](C)CN(c2c(C#N)c(=O)n(-c3c(C)ccnc3C(C)C)c3nc(-c4c(F)c(F)c(F)c(N)c4Cl)c(Cl)cc23)C[C@@H]1C", "log10 IC50", 1.17),
]

The record that follows has no log10 IC50 shown yet.
Form field: reported log10 IC50 of C=CC(=O)N1[C@H](C)CN(c2c(C#N)c(=O)n(-c3c(C)ccnc3C(C)C)c3nc(-c4ccccc4F)c(Cl)cc23)C[C@@H]1C [Amgen 7.3, reference compound] 1.02
